Molecular target: T1, His-tagged cynomolgus monkey TIGIT (Acro Biosystems #TIT-05223) (cynomolgus monkey, UniProt A0A7N9I9V4 89-209)
T1 construct: Bought protein; also called cyno TIGIT; cynomolgus TIGIT; not shown: His tag
T1 sequence (A0A7N9I9V4 entry or part of it): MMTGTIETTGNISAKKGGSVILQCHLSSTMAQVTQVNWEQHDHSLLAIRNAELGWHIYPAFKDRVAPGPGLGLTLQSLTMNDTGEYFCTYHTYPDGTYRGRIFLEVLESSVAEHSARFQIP
Assay: SPR (Carterra LSA), scFv-Fc captured, His-TIGIT analyte
Method: Binding affinities of anti-TIGIT antibodies to human, cyno, and murine TIGIT were measured by Surface Plasmon Resonance (SPR) on a Carterra LSA instrument. Goat anti-human Fc antibody was amine coupled to a HC30M chip. ScFv-Fc supernatants were diluted 30-fold with HBSTE and were captured by the anti-human Fc coupled HC30M chip. A 1:2 dilution series of his-tagged human TIGIT, starting at 400 nM, was injected onto the chip for binding. […] Data were analyzed using the Carterra™ Kinetics software.
measuredQuantity: pKd
// field semantics: pKd = negative decimal log of concentration (mol/L)

binder	observed
43586p1.2.E1 (scFv, V domains shown) VH: EVQLLESGGGLVQPGGSLRLSCAASGFTFSDYLMTWVRQAPGKELEWVSTITWDGDRTYYADSVKGRFTISRDNSKNTLYLQMNSLRAEDTAVYYCAKHWTVFQYGMDVWGQGTTVTVSS VL: QSVLTQPPSASGTPGQRVTISCSGTISNIEIKYVSWYQQLPGTAPKLLIYGNHQRPSGVPDRFSGSKSGTSASLAISGLQSEDEADYYCSSWENDLKSWVFGGGTKLTVL	8.20
43586p1.2.C5 (scFv, V domains shown) VH: EVQLLESGGGLVQPGGSLRLSCAASGFTVSDHYMSWVRQAPGKGLEWVSTTSSTSWKNYTYYADSVKGRFSISRDNSENTLYLQMNGLRAEDTAVYYCAKGSYGMDVWGQGTTVTVSS VL: QSVLTQPPSASGTPGQRVTISCSGSNFNIGTKYLYWYQQLPGTAPKLLIYLDSQRPSGVPDRFSTSKPGTSASLAISGLQSEDEADYYCALWDDHLHGWVFGGGTKLTVL	6.39

Now for a further binder.
Indicate its recorded pKd; the binder in question is 43645p1.E3 (scFv, V domains shown) VH: EVQLLESGGGLVQPGGSLRLSCAASGFTFSSYAMSWVRQAPGKGLEWVSAIYFDGSIYDADSVKGRFTISRDNSKNTLYLQMNSLRDEDTAVYYCAKSHTVLQYGMDVWGQGTTVTVSS VL: QSVLTQPPSASGTPGQRVTISCSGVTSNIRNSYVSWYQQLPGTAPKLLIYGNDQRPSGVPDRFSGSKSGTSASLAISGLQSEDEADYYCGTWDNTLNAWVFGGGTKLTVL
8.16
